# Target: T1, murine GPC3-his protein (murine, UniProt Q8CFZ4 25-558, limits assumed)
# T1 construct: Bought protein; also called mouse GPC3 protein; murine GPC3 protein; not shown: His tag
# T1 sequence (Q8CFZ4 25-558 limits assumed): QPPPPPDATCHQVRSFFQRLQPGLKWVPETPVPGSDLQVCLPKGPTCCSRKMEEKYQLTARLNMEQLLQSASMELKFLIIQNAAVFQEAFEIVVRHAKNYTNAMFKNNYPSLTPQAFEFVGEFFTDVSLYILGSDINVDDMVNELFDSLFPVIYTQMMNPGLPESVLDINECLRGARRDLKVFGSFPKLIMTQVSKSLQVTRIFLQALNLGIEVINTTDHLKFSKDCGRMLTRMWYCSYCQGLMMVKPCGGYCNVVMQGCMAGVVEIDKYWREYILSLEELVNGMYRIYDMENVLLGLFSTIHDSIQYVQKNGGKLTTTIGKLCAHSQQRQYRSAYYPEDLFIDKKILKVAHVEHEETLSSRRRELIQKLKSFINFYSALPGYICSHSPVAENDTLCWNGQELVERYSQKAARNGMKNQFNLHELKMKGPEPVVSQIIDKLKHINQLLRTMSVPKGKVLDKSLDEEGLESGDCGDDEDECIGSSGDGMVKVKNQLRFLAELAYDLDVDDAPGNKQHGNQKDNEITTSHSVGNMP
# Measurement protocol: ELISA, murine GPC3-his coated; antibody 0.02 nM
Parameter: OD450 nm. Scope: all listed entries.
Keep the answer to the number alone.

Sample records with OD450 nm:
Binder	Value type	Quantitative readout
hAb001H1aL1a (antibody, human IgG1, V domains shown, Humanized F2.169.2, H1a+L1a) VH: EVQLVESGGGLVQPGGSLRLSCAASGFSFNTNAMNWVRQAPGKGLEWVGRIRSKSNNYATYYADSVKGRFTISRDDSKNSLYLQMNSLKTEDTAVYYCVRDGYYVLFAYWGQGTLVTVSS VL: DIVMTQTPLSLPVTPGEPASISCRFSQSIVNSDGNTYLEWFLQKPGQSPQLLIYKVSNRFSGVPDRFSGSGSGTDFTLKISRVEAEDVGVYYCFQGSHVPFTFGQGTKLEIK	OD450 nm	0.67
hAb001H1aL1b (antibody, human IgG1, V domains shown, Humanized F2.169.2, H1a+L1b) VH: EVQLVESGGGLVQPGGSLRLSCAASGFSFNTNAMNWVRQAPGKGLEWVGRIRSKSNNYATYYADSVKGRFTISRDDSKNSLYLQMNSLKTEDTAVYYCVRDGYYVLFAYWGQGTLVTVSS VL: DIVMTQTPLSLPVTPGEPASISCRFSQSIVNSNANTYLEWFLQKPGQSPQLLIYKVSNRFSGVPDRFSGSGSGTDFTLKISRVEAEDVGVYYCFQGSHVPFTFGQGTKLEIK	OD450 nm	1.15
hAb001H1L1a (antibody, human IgG1, V domains shown, Humanized F2.169.2, H1+L1a) VH: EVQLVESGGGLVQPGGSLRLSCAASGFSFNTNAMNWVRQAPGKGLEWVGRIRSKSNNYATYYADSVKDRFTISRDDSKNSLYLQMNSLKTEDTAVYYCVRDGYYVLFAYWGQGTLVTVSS VL: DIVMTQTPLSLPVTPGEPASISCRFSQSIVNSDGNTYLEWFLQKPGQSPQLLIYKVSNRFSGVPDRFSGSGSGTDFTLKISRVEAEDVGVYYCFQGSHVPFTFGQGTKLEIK	OD450 nm	0.657
hAb001H2L1 (antibody, human IgG1, V domains shown, Humanized F2.169.2, H2+L1) VH: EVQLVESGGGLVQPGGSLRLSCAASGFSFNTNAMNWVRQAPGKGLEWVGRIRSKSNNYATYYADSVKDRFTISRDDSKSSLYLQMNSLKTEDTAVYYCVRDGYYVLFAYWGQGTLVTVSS VL: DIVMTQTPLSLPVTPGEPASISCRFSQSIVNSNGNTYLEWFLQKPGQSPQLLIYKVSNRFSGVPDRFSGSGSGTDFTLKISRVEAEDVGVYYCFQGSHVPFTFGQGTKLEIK	OD450 nm	1.27
hAb001H2L1b (antibody, human IgG1, V domains shown, Humanized F2.169.2, H2+L1b) VH: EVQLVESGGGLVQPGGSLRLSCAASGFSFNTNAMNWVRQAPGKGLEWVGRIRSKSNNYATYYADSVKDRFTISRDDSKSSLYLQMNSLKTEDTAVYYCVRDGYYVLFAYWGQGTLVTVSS VL: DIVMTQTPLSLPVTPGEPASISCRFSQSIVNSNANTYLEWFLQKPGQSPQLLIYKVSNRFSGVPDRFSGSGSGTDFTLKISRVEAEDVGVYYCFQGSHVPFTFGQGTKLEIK	OD450 nm	1.09

Q: # get_value(readout='OD450 nm', item= hAb001H1aL1 (antibody, human IgG1, V domains shown, Humanized F2.169.2, H1a+L1) VH: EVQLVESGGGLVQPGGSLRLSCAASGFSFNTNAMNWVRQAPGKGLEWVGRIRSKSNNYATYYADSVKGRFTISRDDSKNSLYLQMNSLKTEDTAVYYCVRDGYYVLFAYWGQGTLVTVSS VL: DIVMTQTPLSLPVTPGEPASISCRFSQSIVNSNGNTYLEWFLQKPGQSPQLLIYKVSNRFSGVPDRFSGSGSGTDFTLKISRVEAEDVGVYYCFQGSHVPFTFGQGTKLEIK )
Ans: 1.15

Q: # get_value(readout='OD450 nm', item= hAb001H2L1a (antibody, human IgG1, V domains shown, Humanized F2.169.2, H2+L1a) VH: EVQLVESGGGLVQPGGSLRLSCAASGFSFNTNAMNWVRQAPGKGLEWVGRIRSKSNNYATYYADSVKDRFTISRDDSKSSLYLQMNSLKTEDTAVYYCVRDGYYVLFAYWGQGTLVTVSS VL: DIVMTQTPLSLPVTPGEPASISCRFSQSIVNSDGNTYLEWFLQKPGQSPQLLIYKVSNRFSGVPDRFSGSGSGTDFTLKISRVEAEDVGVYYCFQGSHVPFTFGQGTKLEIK )
Ans: 0.664

Q: # get_value(readout='OD450 nm', item= hAb001H1L1 (antibody, human IgG1, V domains shown, Humanized F2.169.2, H1+L1) VH: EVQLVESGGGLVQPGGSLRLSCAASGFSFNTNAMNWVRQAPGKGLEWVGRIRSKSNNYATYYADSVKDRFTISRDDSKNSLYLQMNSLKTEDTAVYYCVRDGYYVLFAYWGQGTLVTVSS VL: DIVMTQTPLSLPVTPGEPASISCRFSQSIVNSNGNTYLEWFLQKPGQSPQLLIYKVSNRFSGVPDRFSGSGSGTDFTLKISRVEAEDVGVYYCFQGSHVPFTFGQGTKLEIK )
Ans: 1.32

Cited source for all entries: patent US20260116991A1
